experiment: AP1 Signaling Pathway (AID 357); conditions: ME-180 AP-1-bla reporter, EGF-induced, beta-lactamase ratio, 5 h; at 7.69 µM (top of the series) unless noted;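 note: ME-180 reporter cells stimulated with EGF at its EC50 level; % is set by controls: 0 for no effect and ±100 for the full control effect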
Records with an inconclusive call do not appear.
ENDPOINT: activity change, negative = inhibition (%)
Supply the numeric figure in %, leaving out any unit text.

O=C(SCc1cccc2ccccc12)c1ccc(Cl)cc1
9.24
NCCSc1nc2ccccc2s1
1.91

Exercise: In one line, give reported activity change, negative = inhibition of the entry C(/C=C\c1ccccc1)=Nc1ccc2c(c1)Cc1ccccc1-2 .
Solution: -2.87

Exercise: In one line, give reported activity change, negative = inhibition of the entry C[C@H](C(=O)c1ccccc1)[C@@H](c1ccccc1)N1CCOCC1 .
Solution: -4.08

Exercise: In one line, give reported activity change, negative = inhibition of the entry Oc1ccccc1CNCc1ccccc1O .
Solution: -4.9

###

target: Cytochrome P450 1A2 (Homo sapiens); assay: p450-cyp1a2 (AID 410); conditions: recombinant CYP1A2, luciferin-ME demethylation, luminescence; series mostly up to 11.4 µM
Results filed as inconclusive are left out. The source made the active and inactive calls. Calls follow the shape of the full dose curve. Residues, ends and D or L forms follow the SMILES beside them.
Write down the outcome that applies. Available outcomes: active, inactive

Study these solved cases before continuing.
CC(C)c1ccc(/C(C(=O)O)=C(\O)C(=O)O)cc1
inactive
c1ccc2sc(SCCSc3nc4ccccc4s3)nc2c1
active
Cn1c(=O)c2c(nc(N/N=C\c3ccccc3C(=O)O)n2C)n(C)c1=O
inactive
O=C(O)c1cscc1Cc1cccs1
inactive

Exercise: Each compound tested received a call. Report the one for NCC(=O)NC1(C(=O)O)CCCC1 (HELM PEPTIDE1{G.[O=C(O)C1(N[*:1])CCCC1]}$$$$V2.0) .
Solution: inactive

Exercise: Each compound tested received a call. Report the one for N/C(CC/C(N)=N/O)=N\O .
Solution: inactive

Exercise: Each compound tested received a call. Report the one for CN1CCN(CCCBr)CC1 .
Solution: inactive

###

Target: Cytochrome P450 1A2 (Homo sapiens)
Test: p450-cyp1a2 (AID 410)
Settings: recombinant CYP1A2, luciferin-ME demethylation, luminescence; series mostly up to 11.4 µM
Experimental: The P450 gene superfamily is involved in metabolism and the clearance of xenobiotics. This assay used human CYP1A2 to measure the demethylation of luciferin 6' methyl ether (Luciferin-ME; Promega-Glo) to luciferin. The luciferin is then measured by luminescence after the addition of a luciferase detection regeant. Luciferin-ME concentration in the assay was equal to its Km for CYP1A2. NCGC Assay Protocol Summary: […]
Records with an inconclusive call do not appear. Calls of active or inactive are those of the source. Calls come from the whole dose curve.
Write down the outcome that applies. Available outcomes: 1 (yes) for active, 0 (no) for inactive

Study these solved cases before continuing.
CC1=C(C(=O)O)N2C(=O)[C@@H](NC(=O)[C@@H](N)C3=CCC=CC3)[C@@H]2SC1
0 (no)
O=c1cnc2cnc(Oc3ccccc3)nc2n1CCc1ccccc1
1 (yes)
CN1[C@@H]2CC[C@H]1CC(NC(=O)c1nn(C)c3ccccc13)C2 (stereo partly drawn)
0 (no)
O[C@@H](COc1ccc(Cl)cc1Cl)CN1CCCC1
1 (yes)
NS(=O)(=O)c1ccc(N=Nc2cc3ccccc3c(C(=O)O)c2O)cc1
1 (yes)

Exercise: Each molecule tested received a call. Report the one for O=C(O)CCSc1ncnc2nc[nH]c12 .
Solution: 0 (no)

###

assay: NFAT Signaling Pathway (AID 444); settings: Jurkat NFAT-bla M1, carbachol, beta-lactamase ratio, 5 h; at 7.69 µM (top of the series) unless noted;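 note: carbachol stimulus at about its EC50 of 1 µM final; % is set by controls: 0 for no effect and ±100 for the full control effect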
Records with an inconclusive call do not appear. Active and inactive are the calls of the source. Calls come from the whole dose curve; as a rule, active = well fitted curve in either direction with a large enough effect (not every such curve was filed as active); inconclusive = small, poorly fitted or top-dose-only effect, or another doubt; inactive = flat fitted curve, though single readings scatter.
ENDPOINT: activity change, negative = inhibition

Exercise: In one line, give reported activity change, negative = inhibition of the entry NCCOc1ccccn1 .
Solution: 1.74% (inactive)

Exercise: In one line, give reported activity change, negative = inhibition of the entry CN(C)C(=O)/N=N\C(=O)N(C)C .
Solution: -14.2% [at 38 µM] (inactive)

Exercise: In one line, give reported activity change, negative = inhibition of the entry CC1(C)OC[C@@H]2O[C@H](n3cnc4c(N)nc(Cl)nc43)[C@@H](OS(C)(=O)=O)[C@@H]2O1 .
Solution: -7% (inactive)

Exercise: In one line, give reported activity change, negative = inhibition of the entry c1cc(CNCCN2CCNCC2)ccn1 .
Solution: 3.58% (inactive)

###

assay: Cell Viability - BJ (AID 421); conditions: BJ fibroblast viability, qHTS;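 note: cells exposed to compound for 40 hours at 37 °C before readout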
Inconclusive results are not listed. Activity calls are given as the source filed them. The call rests on the fitted dose curve.
Write down the outcome that applies. Available outcomes: yes (1) for active, no (0) for inactive

CC(=O)Nc1cccc(C)c1
no (0)
CC(C)OCC1CO1 (configuration not stated)
no (0)
C[Si](C)(C)Cl
no (0)

Exercise: Each molecule tested received a call. Report the one for c1ccc(Nc2cccc3ccccc23)cc1 .
Solution: no (0)

Exercise: Each molecule tested received a call. Report the one for Nc1ccccc1O .
Solution: no (0)

###

assay: Stat Signaling Pathway (AID 446); settings: ME-180 (cervical carcinoma) SIE beta-lactamase reporter, IL-6 stimulated, 5 h; at 7.69 µM (top of the series) unless noted;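 note: ME-180 cervical cancer cells given 40 pM IL-6 alongside compound; SIE-controlled beta-lactamase reporter measured as 460/530 nm FRET emission ratio; % is set by controls: 0 for no effect and ±100 for the full control effect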
Inconclusive results are not listed. Calls of active or inactive are those of the source. Calls come from the whole dose curve; as a rule, active = well fitted curve in either direction with a large enough effect (not every such curve was filed as active); inconclusive = small, poorly fitted or top-dose-only effect, or another doubt; inactive = flat fitted curve, though single readings scatter.
ENDPOINT: activity, negative = inhibition

Nc1cc2c(nc3c4ccccc4c(N)cc3[n+]2-c2cccc3ccccc23)c2ccccc12 (tested in a mixture with another compound)
6.04% (inactive)
C[C@@H](N)[C@@H](C)Cc1ccccc1
15.9% (inactive)
O=C(Nc1ccc2oc(=O)c(C(=O)O)cc2c1)Oc1ccccc1
1.95% (inactive)
CC(CCC(=O)O)(c1cc(Br)c(O)c(Br)c1)c1cc(Br)c(O)c(Br)c1
0.505% (inactive)
CNC(=O)[C@@H]1O[C@@H](n2cnc3c(NCc4ccc(N)cc4)ncnc32)[C@@H](O)[C@H]1O
-2.42% [at 38 µM] (inactive)
COc1ccc(Oc2ncc3nc(-c4ccccc4)c(=O)n(CCC#N)c3n2)cc1
-6.05% (inactive)
O=S(=O)(c1ccccc1)N1CCC[C@@]2(CCN(Cc3ccccc3)C2)C1
-5.04% (inactive)
O=C1c2ccccc2C(=O)c2c1ccc(N1C(=O)c3ccccc3C1=O)c2-c1c(N2C(=O)c3ccccc3C2=O)ccc2c1C(=O)c1ccccc1C2=O
12% (inactive)
Cc1ccc(S(=O)(=O)Oc2cc(S(=O)(=O)O)cc3cc(S(=O)(=O)O)cc(N)c23)cc1
11.7% (inactive)
CN(CC(=O)O)Cc1c(O)c(Cl)cc(Cl)c1Cl
4.84% (inactive)

Exercise: In one line, give reported activity, negative = inhibition of the entry c1ccc(-c2cc(-c3cc(-c4ccccn4)[nH]n3)n[nH]2)nc1 .
Solution: -2.75% (inactive)

Exercise: In one line, give reported activity, negative = inhibition of the entry CC(=O)Nc1ccc(Cc2ccc3[nH]c(=O)cc(C)c3c2)cc1 .
Solution: -9.78% (inactive)

###

target: Cytochrome P450 3A4 (Homo sapiens) (UniProt P08684); assay: qHTS Assay for Inhibitors and Substrates of Cytochrome P450 3A4 (AID 884); settings: recombinant CYP3A4, Luciferin-PPXE luminescence; series mostly up to 57.1 µM; note: % is set by controls: 0 for no effect and ±100 for the full control effect; nearly all actives have a fitted effect of over 50% in size
Sequence (P08684 whole entry, looked up): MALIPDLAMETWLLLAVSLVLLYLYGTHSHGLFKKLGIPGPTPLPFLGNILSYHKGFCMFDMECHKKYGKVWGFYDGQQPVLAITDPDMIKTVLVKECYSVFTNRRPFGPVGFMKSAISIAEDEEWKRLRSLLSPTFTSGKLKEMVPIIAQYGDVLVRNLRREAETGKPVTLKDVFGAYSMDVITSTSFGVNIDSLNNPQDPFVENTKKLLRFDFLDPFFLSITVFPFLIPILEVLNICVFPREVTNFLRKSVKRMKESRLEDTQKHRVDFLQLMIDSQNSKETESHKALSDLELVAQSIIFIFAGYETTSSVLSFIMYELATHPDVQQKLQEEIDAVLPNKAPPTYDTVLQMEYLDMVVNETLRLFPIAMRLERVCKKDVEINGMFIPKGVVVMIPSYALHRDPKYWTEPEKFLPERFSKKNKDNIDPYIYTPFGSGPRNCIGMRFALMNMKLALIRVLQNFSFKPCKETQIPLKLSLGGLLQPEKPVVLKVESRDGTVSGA
Inconclusive results are not listed. Activity calls are given as the source filed them. Calls come from the whole dose curve; as a rule, active = well fitted inhibition curve with a large enough effect; inconclusive = small, poorly fitted or top-dose-only effect; inactive = no such curve, though single readings can be large or run the other way.
activity change, negative = inhibition values for the molecules below.

// below: answered molecules
Cc1cc(SCC(=O)c2ccccc2)nc2ccccc12
-103% [at 11.4 µM] (inactive)
N#CNC(N)=Nc1ccc(Cl)cc1
-49.7% [at 11.4 µM] (inactive)

Let's switch to this molecule now.
Exercise: Give measured activity change, negative = inhibition for O=C(O)/C(=C\c1ccccc1)Cc1ccccc1 (Cytochrome P450 3A4 (Homo sapiens) (UniProt P08684)).
Solution: 30.2% [at 11.4 µM] (inactive)

###

test: Cell Viability - LYMP2-008 (AID 980); conditions: LYMP2-008 lymphoblastoid cell viability, qHTS; series mostly up to 92.2 µM; note: nearly all actives have a fitted effect of over 60% in size
Inconclusive results are not listed. Activity calls are given as the source filed them. Calls come from the whole dose curve; as a rule, active = well fitted cell-killing curve with a large enough effect; inconclusive = small, poorly fitted or top-dose-only effect; inactive = flat fitted curve, though single readings scatter.
Write down the outcome that applies. Available outcomes: active, inactive

Study these solved cases before continuing.
CC(=O)OC1CC(C)OC(C)O1 (configuration not stated)
inactive
Cc1cc(=O)oc2cc(O)cc(O)c12
inactive
CCN(CC)c1ccc2c(C)cc(=O)oc2c1
inactive
CC1=C(/C=C/C(C)=C/C=C/C(C)=C/C=O)C(C)(C)CCC1
active
OC1CCCCC1
inactive
c1cc2c3c(c1)ccc1cccc(c13)C2
inactive

Exercise: Each compound tested received a call. Report the one for Cc1ccc2ccc3cccc4ccc1c2c34 .
Solution: inactive

Exercise: Each compound tested received a call. Report the one for Oc1c(Cl)cc(Cl)c(Cl)c1Cl .
Solution: inactive

Exercise: Each compound tested received a call. Report the one for O=C(O)c1ccc([N+](=O)[O-])cc1 .
Solution: inactive

Exercise: Each compound tested received a call. Report the one for C=C1CC[C@H](O)C/C1=C/C=C1\CCC[C@]2(C)[C@@H]([C@H](C)CCCC(C)C)CC[C@@H]12 .
Solution: active

Exercise: Each compound tested received a call. Report the one for COc1ccc(C(=O)Nc2ccccc2)cc1[N+](=O)[O-] .
Solution: inactive

Exercise: Each compound tested received a call. Report the one for Brc1cc(Oc2cc(Br)c(Br)c(Br)c2Br)c(Br)c(Br)c1Br .
Solution: inactive

Exercise: Each compound tested received a call. Report the one for Nc1ccc(N)c(Cl)c1 .
Solution: inactive

Exercise: Each compound tested received a call. Report the one for CC(C)COC(=O)COc1cc(Cl)c(Cl)cc1Cl .
Solution: inactive

Exercise: Each compound tested received a call. Report the one for C[Si](C)(C)Cl .
Solution: inactive

Exercise: Each compound tested received a call. Report the one for C/C(Cl)=C/CCl .
Solution: inactive

Exercise: Each compound tested received a call. Report the one for C=CC(C)(O)CCCC(C)CCCC(C)CCCC(C)C (configuration not stated) .
Solution: inactive
